assay: Chemical stability assessed as half life of hydrolysis in RPMI-1640 culture medium at pH 7.6 in presence 10% heat-inactivated fetal calf serum by HPLC analysis; type: physicochemical; settings: cattle, serum
Property: log10(t1/2); scope: individual molecules
Readout type: log10(t1/2) (log10 of the value in h)

INSERT INTO assay_data (molecule, reported_value) VALUES
  ('Cc1cn([C@H]2C=C[C@@H](COP3(=O)OCc4cc(-c5ccc6c(c5)COP(=O)(OC[C@@H]5C=C[C@H](n7cc(C)c(=O)[nH]c7=O)O5)O6)ccc4O3)O2)c(=O)[nH]c1=O (stereo not given in full)', -0.10),
  ('Cc1cn([C@H]2C=C[C@@H](COP3(=O)OCc4cc(-c5cc6c(c(C(C)(C)C)c5)OP(=O)(OC[C@@H]5C=C[C@H](n7cc(C)c(=O)[nH]c7=O)O5)OC6)cc(C(C)(C)C)c4O3)O2)c(=O)[nH]c1=O (single isomer, unassigned; form 1)', 0.90),
  ('Cc1cn([C@H]2C=C[C@@H](COP3(=O)OCc4cc(-c5ccc6c(c5)COP(=O)(OC[C@@H]5C=C[C@H](n7cc(C)c(=O)[nH]c7=O)O5)O6)ccc4O3)O2)c(=O)[nH]c1=O (single isomer, unassigned; form 1)', -0.22),
  ('Cc1cn([C@H]2C=C[C@@H](COP3(=O)OCc4cc(-c5cc6c(c(C(C)(C)C)c5)OP(=O)(OC[C@@H]5C=C[C@H](n7cc(C)c(=O)[nH]c7=O)O5)OC6)cc(C(C)(C)C)c4O3)O2)c(=O)[nH]c1=O (single isomer, unassigned; form 2)', 0.90),
  ('Cc1cn([C@H]2C=C[C@@H](COP3(=O)OCc4cc(-c5cc6c(c(C(C)(C)C)c5)OP(=O)(OC[C@@H]5C=C[C@H](n7cc(C)c(=O)[nH]c7=O)O5)OC6)cc(C(C)(C)C)c4O3)O2)c(=O)[nH]c1=O (single isomer, unassigned; form 3)', 0.96);

---

assay: Chemical stability assessed as half life of hydrolysis in RPMI-1640 culture medium at pH 7.6 in presence 10% heat-inactivated fetal calf serum by HPLC analysis; format: physicochemical; details: cattle
Readout type: half-life (min)

INSERT INTO measurements (molecule, measurement_unit, reported_value) VALUES
  ('Cc1cn([C@H]2C=C[C@@H](COP3(=O)OCc4cc(-c5cc6c(c(C(C)(C)C)c5)OP(=O)(OC[C@@H]5C=C[C@H](n7cc(C)c(=O)[nH]c7=O)O5)OC6)cc(C(C)(C)C)c4O3)O2)c(=O)[nH]c1=O (some centres undefined)', 'min', 498),
  ('Cc1cc(-c2cc(C)c3c(c2)COP(=O)(OC[C@@H]2C=C[C@H](n4cc(C)c(=O)[nH]c4=O)O2)O3)cc2c1OP(=O)(OC[C@@H]1C=C[C@H](n3cc(C)c(=O)[nH]c3=O)O1)OC2 (some centres undefined)', 'min', 138),
  ('Cc1cn([C@H]2C=C[C@@H](COP3(=O)OCc4cc(-c5ccc6c(c5)COP(=O)(OC[C@@H]5C=C[C@H](n7cc(C)c(=O)[nH]c7=O)O5)O6)ccc4O3)O2)c(=O)[nH]c1=O (single isomer, unassigned; form 2)', 'min', 60),
  ('Cc1cn([C@H]2C=C[C@@H](COP3(=O)OCc4cc(-c5ccc(O)c(CO)c5)ccc4O3)O2)c(=O)[nH]c1=O (some centres undefined)', 'min', 126);

Numbers sourced from ChEMBL document CHEMBL1136930.
